Reference source for all entries: PubChem BioAssay AID1159580

test: chemical genetic growth profiling, strain panel (AID 1159580);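 further: tested at 20 µM; growth read once vehicle control cultures reached saturation at 30 °C; lower values mean less growth of the strain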; conditions: S. cerevisiae deletion strains, growth OD, locus YIR030C, strain dcg1
The whole screen tested about 5,500 compounds, of which about 2,000 (36%) were called active. About 18% were inconclusive and are not listed. No stated cut-off is given here; in the data, active means normalized growth mostly below about 0.91 (no sharp cut-off); inconclusive means no clear call, values can overlap the other calls; inactive means mostly above about 0.92. The list shows a part of the results.
Write down the outcome that applies. Available outcomes: active, inactive

Assay result, entry CC[C@H]1OC(=O)[C@H](C)[C@@H](O[C@H]2C[C@@](C)(OC)[C@@H](O)[C@H](C)O2)[C@H](C)[C@@H](O[C@@H]2O[C@H](C)C[C@H](N(C)C)[C@H]2O)[C@](C)(O)C[C@@H](C)CN(C)[C@H](C)[C@@H](O)[C@]1(C)O — outcome?
inactive

Assay result, entry COc1ccc2c(c1OC)C(=O)O[C@@H]2[C@H]1c2cc3c(cc2CCN1C)OCO3 — outcome?
inactive

Assay result, entry COc1ccc2c(c1OC)C(=O)O[C@H]2[C@H]1c2cc3c(cc2CCN1C)OCO3 — outcome?
inactive

Assay result, entry CC(=O)OCC(=O)[C@@]1(O)CCC2C3CCC4=CC(=O)CC[C@]4(C)C3C(=O)C[C@@]21C (stereo partly specified) — outcome?
inactive

Assay result, entry CCCCCCCCNC(C)C(O)c1ccc(SC(C)C)cc1 (stereo unspecified) — outcome?
active

Assay result, entry CN[C@@H](C)[C@@H](O)c1ccccc1 — outcome?
inactive

Assay result, entry COCCc1ccc(OCC(O)CNC(C)C)cc1 (stereo unspecified) — outcome?
inactive

Assay result, entry CC(=O)OC(C)(C)[C@@H]1Cc2cc3ccc(=O)oc3cc2O1 — outcome?
inactive

Assay result, entry CN1CCCN=C1COC(=O)C(O)(c1ccccc1)C1CCCCC1 (stereo unspecified) — outcome?
inactive

Assay result, entry CC(C)(OC(=O)c1ccccc1)[C@@H]1Cc2cc3ccc(=O)oc3cc2O1 — outcome?
inactive

Assay result, entry CC(CCc1ccccc1)NC(C)C(O)c1ccc(O)cc1 (stereo unspecified) — outcome?
inactive
